Below is a list of entries, each paired with its recorded pIC50 value.
target: UniProt:Q14524; test: in-vitro Nav 1.5 PX data; conditions: read-out: Nav 1.5 PX IC50; in-vitro PX (PatchXpress) data
Sequence (Q14524 whole entry): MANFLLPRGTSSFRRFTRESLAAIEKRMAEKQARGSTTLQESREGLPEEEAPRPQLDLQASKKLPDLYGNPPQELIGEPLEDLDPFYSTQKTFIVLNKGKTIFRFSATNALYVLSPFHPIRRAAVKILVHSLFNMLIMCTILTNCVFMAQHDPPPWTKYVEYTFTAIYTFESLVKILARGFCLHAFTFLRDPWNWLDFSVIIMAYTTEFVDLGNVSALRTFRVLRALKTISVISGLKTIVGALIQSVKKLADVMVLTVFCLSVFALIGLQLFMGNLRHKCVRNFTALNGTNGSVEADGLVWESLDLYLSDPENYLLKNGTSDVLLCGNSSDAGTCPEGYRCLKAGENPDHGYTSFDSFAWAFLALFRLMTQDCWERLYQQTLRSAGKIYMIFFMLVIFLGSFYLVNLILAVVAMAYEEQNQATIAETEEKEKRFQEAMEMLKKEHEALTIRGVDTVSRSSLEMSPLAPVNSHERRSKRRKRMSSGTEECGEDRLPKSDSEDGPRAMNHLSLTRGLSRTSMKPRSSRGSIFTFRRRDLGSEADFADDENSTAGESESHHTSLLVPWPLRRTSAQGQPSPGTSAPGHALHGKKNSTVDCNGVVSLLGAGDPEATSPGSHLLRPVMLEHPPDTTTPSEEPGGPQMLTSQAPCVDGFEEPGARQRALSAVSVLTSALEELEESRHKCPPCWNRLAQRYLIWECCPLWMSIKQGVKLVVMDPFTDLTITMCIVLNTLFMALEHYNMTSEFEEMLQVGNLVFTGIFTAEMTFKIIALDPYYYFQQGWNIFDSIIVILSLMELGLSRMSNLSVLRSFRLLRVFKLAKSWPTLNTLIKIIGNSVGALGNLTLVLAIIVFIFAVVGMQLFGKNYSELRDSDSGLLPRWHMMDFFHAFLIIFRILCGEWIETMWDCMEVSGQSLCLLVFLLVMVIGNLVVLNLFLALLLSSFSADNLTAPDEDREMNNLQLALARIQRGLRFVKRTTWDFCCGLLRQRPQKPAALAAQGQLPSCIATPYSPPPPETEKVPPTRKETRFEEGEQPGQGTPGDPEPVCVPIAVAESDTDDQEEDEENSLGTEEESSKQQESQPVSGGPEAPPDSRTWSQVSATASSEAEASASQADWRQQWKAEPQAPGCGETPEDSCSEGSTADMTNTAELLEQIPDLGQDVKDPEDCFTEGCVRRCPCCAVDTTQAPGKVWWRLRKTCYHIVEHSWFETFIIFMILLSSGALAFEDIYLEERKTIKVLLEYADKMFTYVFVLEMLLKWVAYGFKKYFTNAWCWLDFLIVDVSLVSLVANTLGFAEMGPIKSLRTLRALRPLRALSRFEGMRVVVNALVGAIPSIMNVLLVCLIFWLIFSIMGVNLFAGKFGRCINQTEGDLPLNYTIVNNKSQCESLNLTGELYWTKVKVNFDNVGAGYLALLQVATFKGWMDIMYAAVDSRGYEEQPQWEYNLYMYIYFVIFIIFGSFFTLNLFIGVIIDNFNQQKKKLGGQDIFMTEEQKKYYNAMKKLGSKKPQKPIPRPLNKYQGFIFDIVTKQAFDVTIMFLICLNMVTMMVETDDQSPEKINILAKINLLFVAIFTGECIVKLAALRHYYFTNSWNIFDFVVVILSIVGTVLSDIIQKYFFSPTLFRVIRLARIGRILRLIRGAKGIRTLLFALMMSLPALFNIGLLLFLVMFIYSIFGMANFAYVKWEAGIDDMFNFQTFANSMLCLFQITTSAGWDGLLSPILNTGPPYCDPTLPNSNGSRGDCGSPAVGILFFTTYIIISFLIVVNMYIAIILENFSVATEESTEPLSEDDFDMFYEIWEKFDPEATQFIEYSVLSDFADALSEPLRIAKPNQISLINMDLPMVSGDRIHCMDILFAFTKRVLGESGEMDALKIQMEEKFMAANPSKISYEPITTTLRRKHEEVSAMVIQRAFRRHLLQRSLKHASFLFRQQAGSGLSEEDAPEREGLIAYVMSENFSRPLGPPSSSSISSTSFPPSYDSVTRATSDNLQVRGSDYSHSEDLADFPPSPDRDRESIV
pIC50: −log10 of the molar value.

// solved cases for pIC50 follow
{"Compound": "COc1cc(-c2cc(F)cc(F)c2)c(C#N)cc1-c1ncnc2cc(S(=O)(=O)Nc3ccon3)ccc12 [Example 202]", "Measured result": "< 5.00"}
{"Compound": "COc1cc(Oc2cccc(C)c2)ccc1-c1nccc2cc(S(=O)(=O)Nc3ccncn3)ccc12 [Example 181]", "Measured result": "< 5.00"}
{"Compound": "COc1cccc(Oc2ccc(-c3nccc4cc(S(=O)(=O)Nc5ccncn5)ccc34)c(OC)c2)c1 [Example 183]", "Measured result": "< 5.00"}
{"Compound": "COc1cc(-c2cc(C)cnc2OC)ccc1-c1nccc2cc(S(=O)(=O)Nc3nncs3)ccc12 [Example 188]", "Measured result": "< 4.52"}
{"Compound": "COc1cc(-c2cccc(C(F)(F)F)c2)c(C#N)cc1-c1nccc2cc(S(=O)(=O)Nc3ccncn3)ccc12 [Example 184]", "Measured result": "< 4.52"}

Per the reported UniProt:Q14524 data, COc1cc(Oc2cc(C)cc(F)c2)ccc1-c1nccc2cc(S(=O)(=O)Nc3ccncn3)ccc12 [Example 179] has pIC50 of < 5.00

Per the reported UniProt:Q14524 data, COc1cc(-c2ccc(F)c(F)c2)c(C)cc1-c1ncnc2cc(S(=O)(=O)Nc3ccon3)ccc12 [Example 199] has pIC50 of < 5.00

---

target: Nav 1.7 (Homo sapiens (Human)); test: in-vitro Nav 1.7 PX data; assay type: cell-based; conditions: in-vitro PX data
Below is a list of entries, each paired with its recorded pIC50 value.
To interpret pIC50, take it as minus log10 of a concentration measured in moles per litre.

// solved cases for pIC50 follow
{"Compound string": "COc1cc(Cl)c(-c2cccc(F)c2)cc1-c1nccc2cc(S(=O)(=O)Nc3ncccn3)ccc12", "pIC50": 6.95}
{"Compound string": "COc1cc(-c2cc(F)cc(F)c2)ccc1-c1nccc2cc(S(=O)(=O)Nc3ncon3)ccc12", "pIC50": 6.97}
{"Compound string": "COc1cc(-c2cccc(C)c2)c(C#N)cc1-c1nccc2cc(S(=O)(=O)Nc3ccon3)ccc12", "pIC50": 7.40}

Next:
For this compound ( "COc1cc(-c2cccc(Cl)c2)c(F)cc1-c1ncnc2cc(S(=O)(=O)Nc3ccon3)ccc12" ), measured pIC50 is 8.08

---

biological target: Nav 1.7 (Homo sapiens (Human)); experiment: in-vitro Nav 1.7 PX data; assay type: cell-based; conditions: in-vitro Nav 1.7 PX data
Entries are sorted into classes by IC50 as follows: label 0: < 50 nM; label 1: ≥ 50 nM and < 2000 nM; label 2: ≥ 2000 nM

Study these solved cases before continuing.
{"Molecule": "COc1ccc(C)c(-c2cc(C)c(-c3ncnc4cc(S(=O)(=O)Nc5ccon5)ccc34)cc2OC)c1", "Category": "label 2"}
{"Molecule": "COc1cc(C#N)c(-c2cc(F)cc(F)c2)cc1-c1nccc2cc(S(=O)(=O)Nc3nncs3)ccc12", "Category": "label 2"}
{"Molecule": "COc1cc(-c2ccc(Cl)c(F)c2)c(C#N)cc1-c1nccc2cc(S(=O)(=O)Nc3ccncn3)ccc12", "Category": "label 0"}
{"Molecule": "COc1cc(-c2cccc(C(F)(F)F)c2)c(C#N)cc1-c1nccc2cc(S(=O)(=O)Nc3ccon3)ccc12 [Example 1]", "Category": "label 1"}
{"Molecule": "COc1cc(-c2cccc(F)c2)c(C#N)cc1-c1nccc2cc(S(=O)(=O)Nc3ccncn3)ccc12", "Category": "label 1"}

-- ask Form: Item = "COc1cc(-c2cccnc2OC)ccc1-c1nccc2cc(S(=O)(=O)Nc3nncs3)ccc12" ; Class = ?
-- reply label 1

-- ask Form: Item = "COc1cc(-c2cc(C)cc(Cl)c2)c(C#N)cc1-c1nccc2cc(S(=O)(=O)Nc3ccncn3)ccc12" ; Class = ?
-- reply label 0

-- ask Form: Item = "O=S(=O)(Nc1nncs1)c1ccc2c(-c3ccc(-c4cccc(F)c4)cc3CO)nccc2c1" ; Class = ?
-- reply label 1

-- ask Form: Item = "COc1cc(-c2cc(F)cnc2OC)ccc1-c1nccc2cc(S(=O)(=O)Nc3nncs3)ccc12" ; Class = ?
-- reply label 1

-- ask Form: Item = "COc1cc(-c2ccc(Cl)c(C)c2)c(C#N)cc1-c1nccc2cc(S(=O)(=O)Nc3ccncn3)ccc12" ; Class = ?
-- reply label 0

-- ask Form: Item = "COc1ccc(F)cc1-c1cc(C)c(-c2ncnc3cc(S(=O)(=O)Nc4ccon4)ccc23)cc1OC" ; Class = ?
-- reply label 2

---

target: Nav 1.7 (Homo sapiens (Human)); assay: in-vitro Nav 1.7 PX data; assay type: cell-based; settings: in-vitro PX (PatchXpress) data
Labelling: IC50 reported below 200 nM becomes 1.0; at or above becomes 0.0.

Study these solved cases before continuing.
{"Compound": "COc1cc(-c2cccc(F)c2)c(C#N)cc1-c1ncnc2cc(S(=O)(=O)Nc3ccon3)ccc12 [Example 203]", "Category": 1.0}
{"Compound": "COc1cc(-c2cc(F)cnc2OC)c(C)cc1-c1ncnc2cc(S(=O)(=O)Nc3ccon3)ccc12 [Example 198]", "Category": 1.0}
{"Compound": "COc1cc(-c2cccc(F)c2)ccc1-c1n[nH]c(=O)c2cc(S(=O)(=O)Nc3nncs3)ccc12 [Example 18]", "Category": 0.0}
{"Compound": "COc1cc(-c2cc(C)cnc2OC)ccc1-c1nccc2cc(S(=O)(=O)Nc3nncs3)ccc12 [Example 188]", "Category": 0.0}

Now let's try a different one.
-- ask Regarding COc1cc(-c2ccc(F)c(F)c2)c(C)cc1-c1ncnc2cc(S(=O)(=O)Nc3ccon3)ccc12 [Example 199] , kindly confirm whether its IC50 is beneath 200 nM.
-- reply 1.0

---

molecular target: Nav 1.7 (Homo sapiens (Human), UniProt Q15858); assay: in-vitro Nav 1.7 PX data; type: cell-based; conditions: in-vitro PX
Sequence (Q15858 whole entry): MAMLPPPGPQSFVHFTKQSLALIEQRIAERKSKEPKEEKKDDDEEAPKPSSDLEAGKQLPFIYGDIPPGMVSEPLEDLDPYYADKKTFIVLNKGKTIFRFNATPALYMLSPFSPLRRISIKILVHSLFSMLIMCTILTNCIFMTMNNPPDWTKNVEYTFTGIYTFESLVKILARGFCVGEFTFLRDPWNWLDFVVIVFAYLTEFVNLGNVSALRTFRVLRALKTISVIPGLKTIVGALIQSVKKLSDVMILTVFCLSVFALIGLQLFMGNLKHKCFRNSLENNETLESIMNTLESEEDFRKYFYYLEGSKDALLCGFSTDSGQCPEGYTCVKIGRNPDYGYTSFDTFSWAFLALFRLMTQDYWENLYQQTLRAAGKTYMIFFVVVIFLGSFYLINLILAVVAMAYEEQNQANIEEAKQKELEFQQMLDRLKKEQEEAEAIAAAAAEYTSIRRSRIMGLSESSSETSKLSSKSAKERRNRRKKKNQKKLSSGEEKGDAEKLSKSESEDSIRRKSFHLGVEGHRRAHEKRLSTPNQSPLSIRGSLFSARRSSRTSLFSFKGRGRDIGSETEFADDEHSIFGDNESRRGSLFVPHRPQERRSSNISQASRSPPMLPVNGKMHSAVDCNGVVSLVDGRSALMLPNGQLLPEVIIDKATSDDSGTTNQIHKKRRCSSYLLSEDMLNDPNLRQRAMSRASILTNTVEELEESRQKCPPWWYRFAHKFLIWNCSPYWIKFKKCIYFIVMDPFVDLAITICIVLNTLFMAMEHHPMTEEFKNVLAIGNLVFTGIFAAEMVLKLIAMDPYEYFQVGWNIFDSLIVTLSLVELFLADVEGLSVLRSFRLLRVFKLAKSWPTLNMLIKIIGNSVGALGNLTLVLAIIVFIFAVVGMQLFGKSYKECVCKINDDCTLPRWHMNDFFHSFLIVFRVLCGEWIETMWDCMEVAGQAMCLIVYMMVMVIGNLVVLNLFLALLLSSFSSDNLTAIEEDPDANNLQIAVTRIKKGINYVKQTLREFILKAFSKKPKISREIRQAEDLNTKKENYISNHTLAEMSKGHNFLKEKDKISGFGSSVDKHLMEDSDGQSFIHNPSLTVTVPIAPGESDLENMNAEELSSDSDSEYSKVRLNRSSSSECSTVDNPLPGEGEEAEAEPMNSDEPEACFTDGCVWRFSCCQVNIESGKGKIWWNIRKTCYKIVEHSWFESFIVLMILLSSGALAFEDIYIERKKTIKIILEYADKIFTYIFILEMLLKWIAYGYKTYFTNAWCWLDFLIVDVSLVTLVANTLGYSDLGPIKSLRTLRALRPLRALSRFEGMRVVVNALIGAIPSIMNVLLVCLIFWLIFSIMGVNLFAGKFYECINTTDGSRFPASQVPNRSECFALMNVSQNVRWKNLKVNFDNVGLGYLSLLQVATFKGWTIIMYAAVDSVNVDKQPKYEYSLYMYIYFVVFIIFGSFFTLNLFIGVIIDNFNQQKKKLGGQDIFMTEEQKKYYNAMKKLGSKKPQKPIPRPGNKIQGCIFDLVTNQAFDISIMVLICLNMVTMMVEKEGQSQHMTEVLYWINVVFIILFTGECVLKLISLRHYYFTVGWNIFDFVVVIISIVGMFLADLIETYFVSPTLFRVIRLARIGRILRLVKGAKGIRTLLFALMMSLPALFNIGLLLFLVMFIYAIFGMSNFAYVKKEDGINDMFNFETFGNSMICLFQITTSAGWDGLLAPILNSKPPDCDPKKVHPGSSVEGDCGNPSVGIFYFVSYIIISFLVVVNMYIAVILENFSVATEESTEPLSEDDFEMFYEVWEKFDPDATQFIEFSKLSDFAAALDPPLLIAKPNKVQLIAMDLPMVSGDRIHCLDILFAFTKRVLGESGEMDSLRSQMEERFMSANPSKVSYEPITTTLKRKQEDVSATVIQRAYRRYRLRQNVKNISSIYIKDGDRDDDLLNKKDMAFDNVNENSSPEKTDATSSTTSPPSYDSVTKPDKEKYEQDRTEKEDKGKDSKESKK
Below is a list of entries, each paired with its recorded IC50 value.
The reply should contain only the number, in nM.

{"Compound string": "N#CCOc1cc(-c2cccc(F)c2)ccc1-c1nccc2cc(S(=O)(=O)Nc3nncs3)ccc12", "Result unit": "nM", "IC50": 144}
{"Compound string": "COc1nc(Cl)c(Cl)cc1-c1nccc2cc(S(=O)(=O)Nc3nncs3)ccc12", "Result unit": "nM", "IC50": 1870}
{"Compound string": "COc1cc(-c2cc(C)cc(F)c2)c(C#N)cc1-c1nccc2cc(S(=O)(=O)Nc3nncs3)ccc12", "Result unit": "nM", "IC50": 21.8}
{"Compound string": "N#CCOc1cc(-c2cccc(F)c2)ccc1-c1nccc2cc(S(=O)(=O)Nc3ccon3)ccc12", "Result unit": "nM", "IC50": 140}
{"Compound string": "COc1cc(-c2cc(F)cnc2OC)c(Cl)cc1-c1ncnc2cc(S(=O)(=O)Nc3ccon3)ccc12", "Result unit": "nM", "IC50": 19.8}
{"Compound string": "COc1cc(-c2cccc(F)c2)c(Cl)cc1-c1ncnc2cc(S(=O)(=O)Nc3cnsn3)ccc12", "Result unit": "nM", "IC50": 51.5}
{"Compound string": "COc1cc(-c2cc(F)cc(F)c2)c(Cl)cc1-c1nn(C)c(=O)c2cc(S(=O)(=O)Nc3nncs3)ccc12", "Result unit": "nM", "IC50": 47.1}

For this compound ( "COc1cc(-c2ccc(F)c(C)c2)c(Cl)cc1-c1ncnc2cc(S(=O)(=O)Nc3ccon3)ccc12" ), measured IC50 is 38.2

---

target: Nav 1.7 (Homo sapiens (Human)); assay: in-vitro Nav 1.7 PX data; type: cell-based
Below is a list of entries, each paired with its recorded pIC50 value.
To interpret pIC50, take it as minus log10 of a concentration measured in moles per litre.

// solved cases for pIC50 follow
{"Compound": "COc1cc(-c2cccc(C(F)(F)F)c2)ccc1-c1nccc2cc(S(=O)(=O)Nc3ccon3)ccc12", "Assay system": "Nav 1.7 (Homo sapiens (Human))", "Quantity name": "pIC50", "Measured result": 7.10}
{"Compound": "COc1cc(-c2cccc(F)c2)c(Cl)cc1-c1n[nH]c(=O)c2cc(S(=O)(=O)Nc3nncs3)ccc12", "Assay system": "Nav 1.7 (Homo sapiens (Human))", "Quantity name": "pIC50", "Measured result": 6.88}
{"Compound": "COc1cc(-c2cccc(C(F)(F)F)c2)c(F)cc1-c1nn(C)c(=O)c2cc(S(=O)(=O)Nc3ccon3)ccc12", "Assay system": "Nav 1.7 (Homo sapiens (Human))", "Quantity name": "pIC50", "Measured result": 7.03}
{"Compound": "COc1cc(-c2cc(F)cc(F)c2)c(C#N)cc1-c1nccc2cc(S(=O)(=O)Nc3ccncn3)ccc12", "Assay system": "Nav 1.7 (Homo sapiens (Human))", "Quantity name": "pIC50", "Measured result": 6.84}

For this compound ( "COc1cc(N2CC(F)(F)C2)c(C#N)cc1-c1nccc2cc(S(=O)(=O)Nc3ccon3)ccc12" ), measured pIC50 is 6.01

For this compound ( "COc1cc(-c2cccc(C(F)(F)F)c2)c(F)cc1-c1nncc2cc(S(=O)(=O)Nc3ccon3)ccc12" ), measured pIC50 is 7.52

For this compound ( COc1cc(-c2cccc(F)c2)c(Cl)cc1-c1nccc2cc(S(=O)(=O)Nc3ncon3)ccc12 [Example 7, 2,2,2-TRIFLUOROACETATE] ), measured pIC50 is 7.32

For this compound ( "COc1cc(C(F)(F)F)ccc1-c1ncnc2cc(S(=O)(=O)Nc3ccon3)ccc12" ), measured pIC50 is 5.59

For this compound ( "COc1cc(-c2cccc(F)c2)ccc1-c1nccc2cc(S(=O)(=O)Nc3ncns3)c(F)cc12" ), measured pIC50 is 7.31
